Each recorded value in this set is attributed to patent US5504098A.

Biological target: Myosin light chain kinase (MLCK) (Gallus gallus)
Construct: MLCK was isolated and purified by the method according to Walsh et al
Sequence (P11799 935-1906): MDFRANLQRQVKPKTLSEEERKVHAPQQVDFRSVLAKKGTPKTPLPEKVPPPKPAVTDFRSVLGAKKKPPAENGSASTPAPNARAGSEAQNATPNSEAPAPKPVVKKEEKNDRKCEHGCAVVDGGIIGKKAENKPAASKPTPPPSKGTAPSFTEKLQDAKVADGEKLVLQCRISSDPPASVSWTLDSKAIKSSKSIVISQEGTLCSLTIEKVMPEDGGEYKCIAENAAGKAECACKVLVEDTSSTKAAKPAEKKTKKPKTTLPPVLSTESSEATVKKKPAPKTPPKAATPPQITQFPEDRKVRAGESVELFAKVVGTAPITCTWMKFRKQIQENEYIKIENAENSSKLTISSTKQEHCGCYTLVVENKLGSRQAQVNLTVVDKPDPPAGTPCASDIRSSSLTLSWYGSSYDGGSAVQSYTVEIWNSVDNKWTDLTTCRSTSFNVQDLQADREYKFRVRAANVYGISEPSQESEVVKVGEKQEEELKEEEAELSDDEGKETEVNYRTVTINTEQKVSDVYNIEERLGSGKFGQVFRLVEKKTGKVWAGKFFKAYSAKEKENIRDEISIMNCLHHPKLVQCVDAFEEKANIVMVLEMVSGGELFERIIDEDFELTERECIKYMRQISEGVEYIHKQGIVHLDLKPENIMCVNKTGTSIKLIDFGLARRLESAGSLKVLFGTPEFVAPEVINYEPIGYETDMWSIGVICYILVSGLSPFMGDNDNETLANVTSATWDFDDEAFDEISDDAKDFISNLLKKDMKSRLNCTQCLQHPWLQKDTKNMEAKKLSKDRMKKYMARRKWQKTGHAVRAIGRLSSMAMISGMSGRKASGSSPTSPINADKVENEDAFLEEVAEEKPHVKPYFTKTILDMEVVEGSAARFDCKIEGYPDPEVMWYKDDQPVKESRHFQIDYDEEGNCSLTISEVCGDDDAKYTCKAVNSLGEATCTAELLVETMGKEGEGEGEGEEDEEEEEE
Assay: Measurement of the activity to inhibit Myosin light chain kinase (MLCK)
Details: ATP 20, 30, 50 and 100 μM; double reciprocal plotting; substrate MLC from chicken gizzard; read-out: MLCK inhibiting activity in terms of Ki value
Structures can show the parent of a compound that is named as a salt.
# Lookup of reported Ki keyed by entry
Express the result in µM but write the number alone.

Some solved entries appear below for comparison.
Quick one: Ki for CC(NCCNS(=O)(=O)c1cccc2ncsc12)c1cccc(Cl)c1 (centres unmarked) [Compound 9, hydrochloride] ?
90

Quick one: Ki for O=S(=O)(NCCNCc1cccc(F)c1)c1cccc2ncsc12 [Compound 10, hydrochloride] ?
55

Quick one: Ki for O=S(=O)(NCCNCc1cccc(Cl)c1)c1cccc2ncsc12 [Compound 8, hydrochloride] ?
55

Quick one: Ki for CC1CNCCN1S(=O)(=O)c1cccc2ncsc12 (centres unmarked) [Compound 3, hydrochloride] ?
90

Quick one: Ki for NCCNS(=O)(=O)c1cccc2ncsc12 [Compound 4, hydrochloride] ?
75

Continuing:
Quick one: Ki for O=S(=O)(c1cccc2ncsc12)N1CCNCC1 [Compound 2, hydrochloride] ?
50
